Reference source for all entries: patent US10000471B2

Give measured MTT Assay (Viability) 4 h d-U937, percentage loss of cell viability for each item. Keep answers brief.
# Tested on: Differentiated U937 cells
# EXPERIMENT SUMMARY: Cell viability MTT assay
# Type: cell-based, human
# STATED CONDITIONS: 4 hr in 5% FCS; negative = apparent increase in viability
Hi! Could you send only the number? It should be in %, unit omitted.

stdin: Look up MTT Assay (Viability) 4 h d-U937, percentage loss of cell viability: COCC(=O)Nc1cc(Oc2ccc(NC(=O)Nc3cc(C(C)(C)C)nn3-c3ccc(CO)cc3)c(Cl)c2Cl)ccn1
stdout: −4.8

stdin: Look up MTT Assay (Viability) 4 h d-U937, percentage loss of cell viability: COc1ccc(-n2nc(C(C)(C)C)cc2NC(=O)Nc2ccc(Oc3ccnc(NC(=O)N4CCCC4)c3)c(C#N)c2Cl)cc1
stdout: −13.9

stdin: Look up MTT Assay (Viability) 4 h d-U937, percentage loss of cell viability: CN(C)[C@@H]1CCN(C(=O)Nc2cc(Oc3ccc(NC(=O)Nc4cc(C(C)(C)C)nn4-c4ccc(O)cc4)c(Cl)c3Cl)ccn2)C1
stdout: −1.3

stdin: Look up MTT Assay (Viability) 4 h d-U937, percentage loss of cell viability: COc1ccc(-n2nc(C(C)(C)C)cc2NC(=O)Nc2ccc(Oc3ccnc(NC(=O)N4CCC(N(C)C)CC4)c3)c(Cl)c2Cl)cc1
stdout: 7.1

stdin: Look up MTT Assay (Viability) 4 h d-U937, percentage loss of cell viability: CN(C)CC(=O)Nc1cc(Oc2ccc(NC(=O)Nc3cc(C(C)(C)C)nn3-c3ccc(CO)cc3)c(Cl)c2Cl)ccn1
stdout: −12.6

stdin: Look up MTT Assay (Viability) 4 h d-U937, percentage loss of cell viability: CNC(=O)Nc1cc(COc2ccc(NC(=O)Nc3cc(C(C)(C)C)nn3-c3ccc(OC)cc3)c(Cl)c2Cl)ccn1
stdout: 39.5

stdin: Look up MTT Assay (Viability) 4 h d-U937, percentage loss of cell viability: COCC(=O)Nc1cc(Oc2ccc(NC(=O)Nc3cc(C(C)(C)C)nn3-c3ccc(C)cc3)cc2Cl)ccn1
stdout: −0.7

----------
# System: IL-8 release in d-U937 cells
# EXPERIMENT SUMMARY: LPS-induced IL-8 release in d-U937 cells
# Type: cell-based, human
# STATED CONDITIONS: Homo sapiens, dU937
ATTRIBUTE MEASURED: pIC50
Just so you know, pIC50 here is -log10 of the concentration in molar units; reply with that number alone.

stdin: Observed pIC50 on IL-8 release in d-U937 cells for COc1ccc(-n2nc(C(C)(C)C)cc2NC(=O)Nc2ccc(Oc3ccnc(NC(=O)N(C)C)c3)c(Cl)c2Cl)cc1 [Example 64] , please.
stdout: 7.82

stdin: Observed pIC50 on IL-8 release in d-U937 cells for Cc1ccc(-n2nc(C(C)(C)C)cc2NC(=O)Nc2ccc(Oc3ccnc(NC(=O)N(C)C)c3)c(Cl)c2Cl)cc1 [Example 63] , please.
stdout: 7.94

stdin: Observed pIC50 on IL-8 release in d-U937 cells for COCC(=O)Nc1cc(Oc2ccc(NC(=O)Nc3cc(C(C)(C)C)nn3-c3ccc(CO)cc3)c(Cl)c2Cl)ncn1 [Example 93] , please.
stdout: 7.72

stdin: Observed pIC50 on IL-8 release in d-U937 cells for COCC(=O)Nc1nccc(Oc2ccc(NC(=O)Nc3cc(C(C)(C)C)nn3-c3ccc(OC)cc3)c(Cl)c2Cl)n1 [Example 23] , please.
stdout: 7.92

stdin: Observed pIC50 on IL-8 release in d-U937 cells for CN(C)CCNC(=O)Nc1cc(Oc2ccc(NC(=O)Nc3cc(C(C)(C)C)nn3-c3ccc(CO)cc3)c(Cl)c2Cl)ccn1 [Example 70] , please.
stdout: 8.24

stdin: Observed pIC50 on IL-8 release in d-U937 cells for CN(C)CCCC(=O)Nc1cc(Oc2ccc(NC(=O)Nc3cc(C(C)(C)C)nn3-c3ccc(CO)cc3)c(Cl)c2Cl)ncn1 [Example 22] , please.
stdout: 7.47

stdin: Observed pIC50 on IL-8 release in d-U937 cells for COc1ccc(-n2nc(C(C)(C)C)cc2NC(=O)Nc2ccc(Oc3ccnc(NC(=O)N4CCC(N(C)C)CC4)c3)c(Cl)c2Cl)cc1 [Example 87] , please.
stdout: 8.68

----------
Give measured EC50 for each item. Keep answers brief.
# System: TNFα release in d-U937 cells
# EXPERIMENT SUMMARY: LPS-induced TNFα release in d-U937 cells
# Assay type: cell-based, human
# STATED CONDITIONS: Homo sapiens, dU937, relative to 10 μg/mL BIRB796, read-out: LPS/TNFα REC50 d-U937
Hi! Could you send only the number? It should be in pM, unit omitted.

stdin: Look up EC50: COCC(=O)Nc1cc(Oc2ccc(NC(=O)Nc3cc(C(C)(C)C)nn3-c3ccc(C)cc3)c(Cl)c2F)ccn1
stdout: 500

stdin: Look up EC50: CNC(=O)Nc1cc(Oc2ccc(NC(=O)Nc3cc(C(C)(C)C)nn3-c3ccc(CO)c(OC)c3)c(Cl)c2Cl)ccn1
stdout: 1300

stdin: Look up EC50: CNC(=O)Nc1cc(Oc2ccc(NC(=O)Nc3cc(C(C)(C)C)nn3-c3ccc(OC)cc3)c(Cl)c2Cl)ncn1
stdout: 100

stdin: Look up EC50: COCC(=O)Nc1nccc(Oc2ccc(NC(=O)Nc3cc(C(C)(C)C)nn3-c3ccc(CO)cc3)c(Cl)c2Cl)n1
stdout: 600

stdin: Look up EC50: CNC(=O)Nc1cc(Oc2ccc(NC(=O)Nc3cc(C(C)(C)C)nn3-c3ccc(C)cc3)c(Cl)c2Cl)ncn1
stdout: 200

stdin: Look up EC50: CSc1ccc(-n2nc(C(C)(C)C)cc2NC(=O)Nc2ccc(Oc3ccnc(NC(=O)N4CCCC4)c3)c(Cl)c2Cl)cc1
stdout: 800

stdin: Look up EC50: CN(C)[C@@H]1CCN(C(=O)Nc2cc(Oc3ccc(NC(=O)Nc4cc(C(C)(C)C)nn4-c4ccc(O)cc4)c(Cl)c3Cl)ccn2)C1
stdout: 800

stdin: Look up EC50: COCC(=O)Nc1cc(Oc2ccc(NC(=O)Nc3cc(C(C)(C)C)nn3-c3ccc(CO)cc3)c(Cl)c2Cl)ccn1
stdout: 700

stdin: Look up EC50: COc1ccc(-n2nc(C(C)(C)C)cc2NC(=O)Nc2ccc(Oc3ccnc(NC(=O)N4CCCC4(C)C)c3)c(Cl)c2Cl)cc1
stdout: 2700

stdin: Look up EC50: COCC(=O)Nc1nccc(Oc2ccc(NC(=O)Nc3cc(C(C)(C)C)nn3-c3ccc(OC)cc3)c(Cl)c2Cl)n1
stdout: 300

stdin: Look up EC50: CNC(=O)Nc1nccc(Oc2ccc(NC(=O)Nc3cc(C(C)(C)C)nn3-c3ccc(C)cc3)c(Cl)c2Cl)n1
stdout: 200

stdin: Look up EC50: COCC(=O)Nc1cc(Oc2ccc(NC(=O)Nc3cc(C(C)(C)C)nn3-c3ccc(C)cc3)c(Br)c2)ccn1
stdout: 600

stdin: Look up EC50: CNC(=O)Nc1cc(Oc2ccc(NC(=O)Nc3cc(C(C)(C)C)nn3-c3ccc(CO)cc3)c3cccnc23)ccn1
stdout: 17600

stdin: Look up EC50: CN(C)CCCC(=O)Nc1cc(Oc2ccc(NC(=O)Nc3cc(C(C)(C)C)nn3-c3ccc(CO)cc3)c(Cl)c2Cl)ncn1
stdout: 1500

stdin: Look up EC50: COc1ccc(-n2nc(C(C)(C)C)cc2NC(=O)Nc2ccc(Oc3ccnc(NC(=O)CN(C)C)c3)c(Cl)c2Cl)cc1
stdout: 900

stdin: Look up EC50: COCC(=O)Nc1cc(COc2ccc(NC(=O)Nc3cc(C(C)(C)C)nn3-c3ccc(C)cc3)c3cccnc23)ccn1
stdout: 876000

stdin: Look up EC50: CC(C)(C)c1cc(NC(=O)Nc2ccc(Oc3ccnc(NC(=O)N4CCCC4)c3)c(Cl)c2Cl)n(-c2ccc(CO)cc2)n1
stdout: 200

stdin: Look up EC50: COc1ccc(-n2nc(C(C)(C)C)cc2NC(=O)Nc2ccc(Oc3ccnc(NC(=O)N4CCCC4)c3)c(Cl)c2Cl)cc1
stdout: 900

stdin: Look up EC50: CNC(=O)Nc1cc(Oc2ccc(NC(=O)Nc3cc(C(C)(C)C)nn3-c3ccc(C)cc3)c(Cl)c2Cl)ccn1
stdout: 200

stdin: Look up EC50: CC(C)(C)c1cc(NC(=O)Nc2ccc(Oc3ccnc(NC(=O)N4CCCC4)c3)c(Cl)c2Cl)n(-c2ccc(O)cc2)n1
stdout: 1300

stdin: Look up EC50: CNC(=O)Nc1nccc(Oc2ccc(NC(=O)Nc3cc(C(C)(C)C)nn3-c3ccc(OC)cc3)c(Cl)c2Cl)n1
stdout: 1900

stdin: Look up EC50: CC(C)(C)c1cc(NC(=O)Nc2ccc(Oc3ccnc(NC(=O)CN4CCOCC4)c3)c(Cl)c2Cl)n(-c2ccc(CO)cc2)n1
stdout: 1100

stdin: Look up EC50: Cc1ccc(-n2nc(C(C)(C)C)cc2NC(=O)Nc2ccc(OCc3ccnc(NC(=O)N4CCCC4)c3)c(Cl)c2Cl)cc1
stdout: 25600

stdin: Look up EC50: COCC(=O)Nc1cc(Oc2ccc(NC(=O)Nc3cc(C(C)(C)C)nn3-c3ccc(C)cc3)c(Cl)c2C(F)(F)F)ccn1
stdout: 1900

stdin: Look up EC50: Cc1ccc(-n2nc(C(C)(C)C)cc2NC(=O)Nc2ccc(Oc3cc(NC(=O)NCCN(C)C)ncn3)c(Cl)c2Cl)cc1
stdout: 1700

stdin: Look up EC50: COCC(=O)Nc1cc(Oc2cc(Cl)c(NC(=O)Nc3cc(C(C)(C)C)nn3-c3ccc(C)cc3)cc2F)ccn1
stdout: 54100

stdin: Look up EC50: COCC(=O)Nc1cc(Oc2ccc(NC(=O)Nc3cc(C(C)(C)C)nn3-c3ccc(C)cc3)cc2C(F)(F)F)ccn1
stdout: 2500
